Source: ChEMBL document CHEMBL5335837

Test: Selectivity index, ratio of IC50 for cytotoxicity against human A549 cells to IC50 for antimalarial activity against Plasmodium falciparum W2
Assay type: toxicity, cell-based
Settings: read-out: Ratio IC50
Below, each entry is listed alongside its reported selectivity ratio.
Reply with just the number.

| compound | selectivity ratio |
| --- | --- |
| COc1cccc(C(c2ccc(C(F)(F)F)cc2)N2CCN(c3cnccn3)CC2)c1O (configuration not stated) | 27.7 |
| COc1cccc(C(c2ccc(F)c(F)c2)N2CCN(c3cnccn3)CC2)c1O (configuration not stated) | 26.1 |
| COc1ccc(C(c2ccccc2O)N2CCN(c3cnccn3)CC2)cc1 (configuration not stated) | 240 |

Query: Kindly indicate its recorded selectivity ratio. Item: Oc1ccccc1C(c1ccc(C(F)(F)F)cc1)N1CCN(c2cnccn2)CC1 (configuration not stated)
Response: 1.89

Query: Kindly indicate its recorded selectivity ratio. Item: Oc1ccccc1C(c1ccc(Cl)c(Cl)c1)N1CCN(c2cnccn2)CC1 (configuration not stated)
Response: 15

Query: Kindly indicate its recorded selectivity ratio. Item: Oc1ccccc1C(c1ccc(OC(F)(F)F)cc1)N1CCN(c2cnccn2)CC1 (configuration not stated)
Response: 27.1

Query: Kindly indicate its recorded selectivity ratio. Item: COc1cccc(C(c2ccc(OC(F)(F)F)cc2)N2CCN(c3cnccn3)CC2)c1O (configuration not stated)
Response: 21.6
